Test: CellTiter-Glo luminescent readout of SW480 viability loss, NPC library primary (AID 1117343)
Details: CellTiter-Glo luminescence; at 20 µM (top of the series)
This section presents molecules with their documented viability decrease (inhibition) values.
Report as a plain number; the unit % is understood.

Query string: For the molecule shown here, COc1ccc(OC)c(C(O)CNC(=O)CN)c1 (stereo unspecified) , give the reported viability decrease (inhibition).
Result string: -26.4

Query string: For the molecule shown here, CC(=O)OCC(=O)[C@@]1(O)CC[C@H]2[C@@H]3CCC4=CC(=O)C=C[C@]4(C)[C@H]3[C@@H](O)C[C@@]21C , give the reported viability decrease (inhibition).
Result string: -9.3

Continuing:
Query string: For the molecule shown here, NS(=O)(=O)c1cc2c(cc1Cl)CN(C1CCCCC1)C2=O , give the reported viability decrease (inhibition).
Result string: -0.2

Query string: For the molecule shown here, CCN(CC)C(=S)SSC(=S)N(CC)CC , give the reported viability decrease (inhibition).
Result string: 39.4

Query string: For the molecule shown here, CON=C(C(=O)N[C@@H]1C(=O)N2C(C(=O)O)=C(C[N+]3(C)CCCC3)CS[C@H]12)c1csc(N)n1 , give the reported viability decrease (inhibition).
Result string: -14.4

Query string: For the molecule shown here, O=C(O)Cc1ccc2c(c1)C(=O)c1ccccc1CO2 , give the reported viability decrease (inhibition).
Result string: -5.2

Query string: For the molecule shown here, O=C(Cn1ccnc1[N+](=O)[O-])NCc1ccccc1 , give the reported viability decrease (inhibition).
Result string: 7.9

Query string: For the molecule shown here, COC(=O)c1cc(S(N)(=O)=O)ccc1OC , give the reported viability decrease (inhibition).
Result string: -8.9

Query string: For the molecule shown here, Cc1nc(C2CCCCC2)c(-c2ccc(S(N)(=O)=O)c(F)c2)o1 , give the reported viability decrease (inhibition).
Result string: 6.3

Query string: For the molecule shown here, COc1cc(S(N)(=O)=O)cc(C(=O)O)c1OC , give the reported viability decrease (inhibition).
Result string: 18.9

Query string: For the molecule shown here, N[C@H](Cc1c[nH]c2ccccc12)C(=O)O , give the reported viability decrease (inhibition).
Result string: 6.5

###

Assay: stimulators of insulin release from INS-1E, primary screen, cell-based, 5 mM glucose, NPC library (AID 1117329); further: reference of the scale not given here
Settings: rat INS-1E insulin secretion, at 10 µM, hits give high values
This section presents compounds with their documented insulin secretion stimulation values.
Report as a plain number; the unit % is understood.

Recorded results for 4 compounds are shown here.
Query string: For the compound shown here, CC12C=CC(=O)C=C1CCC1C2C(O)CC2(C)C1CCC2(O)C(=O)COP(=O)(O)O (centres undefined) , give the reported insulin secretion stimulation.
Result string: 1.5

Query string: For the compound shown here, OC(Cn1cncn1)(Cn1cncn1)c1ccc(F)cc1F , give the reported insulin secretion stimulation.
Result string: 4.05

Query string: For the compound shown here, c1ccc(CNCCNCc2ccccc2)cc1 , give the reported insulin secretion stimulation.
Result string: 3.4

Query string: For the compound shown here, O=C(CCCCCCCCC#CI)Oc1ccccc1 , give the reported insulin secretion stimulation.
Result string: -1.7

Continuing:
Query string: For the compound shown here, Cc1ccc(C(=O)Oc2ccc(C(O)CNC(C)(C)C)cc2OC(=O)c2ccc(C)cc2)cc1 (centres undefined) , give the reported insulin secretion stimulation.
Result string: 4.5

Query string: For the compound shown here, COc1ccc2c(c1)c(CC(=O)OC/C=C(\C)CC/C=C(\C)CCC=C(C)C)c(C)n2C(=O)c1ccc(Cl)cc1 , give the reported insulin secretion stimulation.
Result string: 2.1

Query string: For the compound shown here, Oc1ccc(C(O)CNCCCCCCNCC(O)c2ccc(O)c(O)c2)cc1O (centres undefined) , give the reported insulin secretion stimulation.
Result string: 1.65

Query string: For the compound shown here, CCN(CC)CCNC(=O)c1ccc(N)cc1 , give the reported insulin secretion stimulation.
Result string: 1.1

Query string: For the compound shown here, O=C(O)CNC(=O)c1ccccc1 , give the reported insulin secretion stimulation.
Result string: -1.9

Query string: For the compound shown here, CCc1cc(S(=O)(=O)O)c2cc(C(C)C)cccc1-2 , give the reported insulin secretion stimulation.
Result string: 0.1

Query string: For the compound shown here, Nc1ccc(C(=O)N2CC3CC(CN(Cc4ccccc4)C3)C2)cc1 , give the reported insulin secretion stimulation.
Result string: 0.1

Query string: For the compound shown here, O=C(O)c1ccc(OCCCOc2ccc(C(=O)O)cc2)cc1 , give the reported insulin secretion stimulation.
Result string: 3.2

Query string: For the compound shown here, C/C(=C(\CCO)SS/C(CCO)=C(\C)N(C=O)Cc1cnc(C)nc1N)N(C=O)Cc1cnc(C)nc1N , give the reported insulin secretion stimulation.
Result string: 0.9

###

Assay: activators of macrophage pro-inflammatory response, cell-based, murine, luminescence (AID 652131)
Details: murine macrophage pro-inflammatory reporter, hits give high values
Activity calls are given as the source filed them. How the calls were made is not given here.
assay_readout: z-score

Query string: For the compound shown here, COc1ccc2ncnc(Nc3ccc(OCc4ccccc4)cc3)c2c1 , give the reported z-score.
Result string: 1.39 (inactive)

Query string: For the compound shown here, CS(=O)(=O)CCNCc1ccc(-c2ccc3ncnc(Nc4ccc(OCc5ccccc5)cc4)c3c2)o1 , give the reported z-score.
Result string: -0.003 (inactive)

Query string: For the compound shown here, CC(C)=Cc1cccc2[nH]c(O)c(N=Nc3ccc(S(N)(=O)=O)cc3)c12 , give the reported z-score.
Result string: 0.183 (inactive)

Query string: For the compound shown here, Cc1cccc(C2NNCC2c2ccc3ncccc3n2)n1 (stereo unspecified) , give the reported z-score.
Result string: 0.276 (inactive)

Continuing:
Query string: For the compound shown here, c1ccc(Nc2ncc(-c3ccccc3)o2)cc1 , give the reported z-score.
Result string: 0.128 (inactive)

Query string: For the compound shown here, c1ccc(COc2ccc(Nc3ncnc4ccc(-c5ccco5)cc34)cc2)cc1 , give the reported z-score.
Result string: -1.14 (inactive)

###

This section presents molecules with their documented log fold change Tl+ flux values.
Test system: R275C/beta1
Experiment: modulators of BK channel variants, profiling panel, selectivity assay, cell-based, U2OS BacMam, thallium flux, beta subunits (AID 1259406);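 further: initial slope of Thallos dye fluorescence rise after thallium is added; log ratio against the mean of 0.3% DMSO vehicle wells on the same plate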
Details: at 30 µM
API doc: respond with a numeric literal and nothing else, no unit.

Query string: For the molecule shown here, COc1cc(NC(C)CCCN)c2ncccc2c1 (configuration not stated) , give the reported log fold change Tl+ flux.
Result string: 0.0817

Query string: For the molecule shown here, CCN(CC)CCOC(=O)C1(C2CCCCC2)CCCCC1 , give the reported log fold change Tl+ flux.
Result string: 0.0871

Query string: For the molecule shown here, CCCc1nc2c(C)cc(-c3nc4ccccc4n3C)cc2n1Cc1ccc(-c2ccccc2C(=O)O)cc1 , give the reported log fold change Tl+ flux.
Result string: -0.0256

Query string: For the molecule shown here, CC(=O)O[C@]1(C(C)=O)CC[C@H]2[C@@H]3C=C(C)C4=CC(=O)CC[C@]4(C)[C@H]3CC[C@@]21C , give the reported log fold change Tl+ flux.
Result string: 0.00523

Query string: For the molecule shown here, CC1(C)O[C@@H]2[C@@H](CO[C@@]3(COS(N)(=O)=O)OC(C)(C)O[C@@H]23)O1 , give the reported log fold change Tl+ flux.
Result string: 0.0176

Continuing:
Query string: For the molecule shown here, CN(C)c1ccc(O)c2c1C[C@H]1C[C@H]3[C@H](N(C)C)C(=O)C(C(N)=O)=C(O)[C@@]3(O)C(=O)C1=C2O , give the reported log fold change Tl+ flux.
Result string: -0.00562

Query string: For the molecule shown here, COC(=O)Nc1nc2ccc(C(=O)c3ccccc3)cc2[nH]1 , give the reported log fold change Tl+ flux.
Result string: 0.00663

Query string: For the molecule shown here, CCc1cccc2c3c([nH]c12)C(CC)(CC(=O)O)OCC3 (configuration not stated) , give the reported log fold change Tl+ flux.
Result string: 0.127

Query string: For the molecule shown here, COCCOC(=O)C1=C(C)NC(C)=C(C(=O)OC(C)C)C1c1cccc([N+](=O)[O-])c1 (configuration not stated) , give the reported log fold change Tl+ flux.
Result string: -0.0169

Query string: For the molecule shown here, O=c1n(CCCN2CCN(c3cccc(Cl)c3)CC2)nc2ccccn12 , give the reported log fold change Tl+ flux.
Result string: 0.025

Query string: For the molecule shown here, CCN(CC)CCOC(=O)c1ccc(N)cc1 , give the reported log fold change Tl+ flux.
Result string: -0.0214

Query string: For the molecule shown here, CC(=O)S[C@@H]1CC2=CC(=O)CC[C@]2(C)[C@H]2CC[C@@]3(C)[C@@H](CC[C@@]34CCC(=O)O4)[C@H]12 , give the reported log fold change Tl+ flux.
Result string: 0.0449

Query string: For the molecule shown here, CCOC(=O)[C@H](CCc1ccccc1)N[C@@H](C)C(=O)N1Cc2ccccc2C[C@H]1C(=O)O , give the reported log fold change Tl+ flux.
Result string: 0.0226

Query string: For the molecule shown here, CCC1(c2ccccc2)C(=O)NCNC1=O , give the reported log fold change Tl+ flux.
Result string: -0.0109

Query string: For the molecule shown here, COc1ccccc1OCCNCC(O)COc1cccc2[nH]c3ccccc3c12 (configuration not stated) , give the reported log fold change Tl+ flux.
Result string: 0.386

Query string: For the molecule shown here, CCCN1C[C@H](CSC)C[C@@H]2c3cccc4[nH]cc(c34)C[C@H]21 , give the reported log fold change Tl+ flux.
Result string: -0.0389

Query string: For the molecule shown here, COc1ccccc1N1CCN(CCCNc2cc(=O)n(C)c(=O)n2C)CC1 , give the reported log fold change Tl+ flux.
Result string: 0.0413

Query string: For the molecule shown here, CCn1cc(C(=O)O)c(=O)c2cc(F)c(N3CCN(C)CC3)cc21 , give the reported log fold change Tl+ flux.
Result string: 0.0145

Query string: For the molecule shown here, Clc1cccc(Cl)c1NC1=NCCN1 , give the reported log fold change Tl+ flux.
Result string: 0.000941

Query string: For the molecule shown here, CC(C)NCC(O)c1ccc(O)c(O)c1 (configuration not stated) , give the reported log fold change Tl+ flux.
Result string: -0.0419

Query string: For the molecule shown here, CCCNC(=O)NS(=O)(=O)c1ccc(Cl)cc1 , give the reported log fold change Tl+ flux.
Result string: 0.0476

Query string: For the molecule shown here, Oc1c(Cl)cc(Cl)c2cccnc12 , give the reported log fold change Tl+ flux.
Result string: 0.249

All values here come from PubChem BioAssay.
